# MEASURED_TARGET: T1, hMC4-R (human, UniProt P32245 1-332)
# T1 construct: whole, on cells; Membrane preparation; also called MCR-4
# T1 sequence (P32245 whole entry): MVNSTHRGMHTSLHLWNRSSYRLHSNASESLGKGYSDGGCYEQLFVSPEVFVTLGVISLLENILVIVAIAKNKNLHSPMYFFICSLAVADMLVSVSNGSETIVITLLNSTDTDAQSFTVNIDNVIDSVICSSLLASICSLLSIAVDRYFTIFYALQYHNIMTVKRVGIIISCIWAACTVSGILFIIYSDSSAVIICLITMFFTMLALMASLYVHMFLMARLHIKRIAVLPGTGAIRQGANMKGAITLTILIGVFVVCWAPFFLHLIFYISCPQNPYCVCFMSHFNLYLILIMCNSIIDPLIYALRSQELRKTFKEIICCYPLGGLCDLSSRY
# PROTOCOL_NOTES: assay not described for this value
Square brackets hold non-standard residues; d marks the D form. Nle = CCCC[C@H](N)C(=O)O
ENDPOINT: Ki (nM)
Give the value, in units of nM, as a plain number.

Data request: What does the record list as Ki for Ac-[Nle]AH[dF]RW-NH2 (Linear parent peptide, not complexed to a metal; also called parent melanocortin peptide) [Ac-Nle-Ala-His-D-Phe-Arg-Trp-NH2] ?
Data returned: 2000

Hey, just so you know, these numbers are from patent EP1379283B1.
